target: Estrogen receptor (Homo sapiens) + Estrogen receptor beta (Homo sapiens) (UniProt P03372+Q92731); test: OT_ER_ERaERb_0480: Odyssey Thera (OT) 8-hour HEK293T Protein-Complementation Assay for Estrogen Receptor-alpha/-beta Heterodimer (AID 2283352)
Sequence (P03372 whole entry, looked up): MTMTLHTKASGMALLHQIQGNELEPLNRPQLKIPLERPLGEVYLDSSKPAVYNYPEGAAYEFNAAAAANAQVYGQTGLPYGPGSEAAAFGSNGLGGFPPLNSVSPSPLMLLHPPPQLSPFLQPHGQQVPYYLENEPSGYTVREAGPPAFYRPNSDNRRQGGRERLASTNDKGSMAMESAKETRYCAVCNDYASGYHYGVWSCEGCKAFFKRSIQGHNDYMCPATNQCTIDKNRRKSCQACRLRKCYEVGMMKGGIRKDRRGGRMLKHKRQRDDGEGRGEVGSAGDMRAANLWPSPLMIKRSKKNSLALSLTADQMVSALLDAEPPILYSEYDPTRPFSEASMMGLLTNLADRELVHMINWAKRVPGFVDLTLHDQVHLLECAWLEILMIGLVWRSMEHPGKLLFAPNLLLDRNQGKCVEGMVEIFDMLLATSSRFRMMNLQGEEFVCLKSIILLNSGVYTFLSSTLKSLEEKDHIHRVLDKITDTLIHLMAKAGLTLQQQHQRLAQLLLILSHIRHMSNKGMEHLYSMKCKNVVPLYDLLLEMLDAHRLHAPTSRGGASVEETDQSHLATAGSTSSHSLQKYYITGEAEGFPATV
Sequence (Q92731 whole entry, looked up): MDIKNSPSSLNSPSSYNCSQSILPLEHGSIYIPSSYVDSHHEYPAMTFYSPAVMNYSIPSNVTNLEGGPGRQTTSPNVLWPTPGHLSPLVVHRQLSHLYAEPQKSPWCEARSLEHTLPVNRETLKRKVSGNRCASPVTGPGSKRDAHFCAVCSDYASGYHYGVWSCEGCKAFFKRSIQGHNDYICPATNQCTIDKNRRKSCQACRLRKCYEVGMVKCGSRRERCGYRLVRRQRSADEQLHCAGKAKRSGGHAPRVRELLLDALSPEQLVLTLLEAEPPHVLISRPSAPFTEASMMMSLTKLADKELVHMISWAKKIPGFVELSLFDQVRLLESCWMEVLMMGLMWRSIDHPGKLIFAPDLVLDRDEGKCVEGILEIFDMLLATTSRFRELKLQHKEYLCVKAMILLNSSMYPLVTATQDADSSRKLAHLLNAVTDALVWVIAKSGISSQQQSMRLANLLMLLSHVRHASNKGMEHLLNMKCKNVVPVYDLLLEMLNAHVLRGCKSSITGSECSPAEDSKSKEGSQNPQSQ
Records with an inconclusive call do not appear. Active and inactive are the calls of the source. How the source made its calls: active means hit-call score of the fitted dose curve at least 0.9, where 1 is the maximum; inconclusive means response in the unintended direction; inactive means score below 0.9.
resultType: outcome

Nc1nc(=S)c2[nH]cnc2[nH]1: inactive
CCc1nc(N)nc(N)c1-c1ccc(Cl)cc1: inactive
NC(=Nc1ccccc1)Nc1ccccc1: inactive

* * *

read-out: Interferon-gamma inducible Protein 10 (IP10), CXCL10 (gene 3627); assay: BSK_BE3C_IP10: BioMAP Diversity Plus: BE3C Assay for Interferon-gamma inducible Protein 10 (IP10) Biomarker Activity (AID 2283034); conditions: primary human bronchial epithelial cells; actives raise or lower the signal
Calls of active or inactive are those of the source. How the source made its calls: active means hit-call score of the fitted dose curve at least 0.9, where 1 is the maximum; inactive means score below 0.9.
Allowed answers: active, inactive

Q: Which result was noted for this compound in the test: CC(C)(C)c1ccccc1
A: inactive

Q: Which result was noted for this compound in the test: COc1ccc(OC(F)(F)F)cc1CN[C@H]1CCCN[C@H]1c1ccccc1
A: inactive

Q: Which result was noted for this compound in the test: N[C@@H](Cc1c[nH]c2ccccc12)C(=O)O
A: inactive

Q: Which result was noted for this compound in the test: CCC(C)N(C)C(=O)c1cc2ccccc2c(-c2ccccc2Cl)n1 (stereo not drawn)
A: inactive

Q: Which result was noted for this compound in the test: CCCCC(CC)CO (stereo not drawn)
A: inactive

Q: Which result was noted for this compound in the test: CCCCC(CC)COP(=O)(OCC(CC)CCCC)OCC(CC)CCCC (stereo not drawn)
A: inactive

Q: Which result was noted for this compound in the test: CN(C)CCCN1c2ccccc2Sc2ccc(Cl)cc21
A: active

Q: Which result was noted for this compound in the test: CCCCc1nc2cccnc2n1Cc1ccc(-c2ccccc2-c2nnn[nH]2)cc1
A: inactive

Q: Which result was noted for this compound in the test: O=C(O)CC(O)(CC(=O)O)C(=O)O
A: inactive

Q: Which result was noted for this compound in the test: CC(C)NCC(O)c1ccc(O)c(O)c1 (stereo not drawn)
A: inactive

Q: Which result was noted for this compound in the test: CSc1ccc(Oc2ccc(S(N)(=O)=O)cc2CN(C)C)cc1C
A: inactive

Q: Which result was noted for this compound in the test: CC1(C)C(=O)NC(=O)N1CO
A: inactive

Q: Which result was noted for this compound in the test: OCC(O)CO
A: inactive

Q: Which result was noted for this compound in the test: NC=O
A: inactive

Q: Which result was noted for this compound in the test: NC1CCCCC1
A: inactive

Q: Which result was noted for this compound in the test: CCCCCCCCCCCCCCCCO
A: inactive

Q: Which result was noted for this compound in the test: O=C1c2c(O)cccc2Cc2cccc(O)c21
A: inactive

Q: Which result was noted for this compound in the test: C/C=C/C=C/C(=O)O
A: inactive

Q: Which result was noted for this compound in the test: COc1ccc(C(=O)Nc2nc3ccccc3c(NCc3ccccc3)c2C#N)cc1
A: inactive

Q: Which result was noted for this compound in the test: C#CC(O)C(CC)CCCC (stereo not drawn)
A: inactive

Q: Which result was noted for this compound in the test: O=C1O[C@H]([C@H](O)CO)C(O)=C1O
A: inactive

Q: Which result was noted for this compound in the test: CC(COCC(C)OC(=O)c1ccccc1)OC(=O)c1ccccc1 (stereo not drawn)
A: inactive

Q: Which result was noted for this compound in the test: Nc1nc(=S)c2[nH]cnc2[nH]1
A: inactive

* * *

read-out: Low-density lipoprotein receptor (LDLR), LDLR (gene 3949); assay: BSK_CASM3C_LDLR: BioMAP Diversity Plus: CASM3C Assay for Low-density lipoprotein receptor (LDLR) Biomarker Activity (AID 2283045); details: primary human coronary artery smooth muscle cells; actives raise or lower the signal;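 further: LDLR protein level on the cell surface quantified by ELISA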
Activity calls are given as the source filed them. Rule for the calls: active = hit-call score of the fitted dose curve at least 0.9, where 1 is the maximum; inactive = score below 0.9.
resultType: AC50

Illustrative cases are given below, each with its answer.
CO[C@@H]1COCC[C@@H]1N[C@@H]1CC[C@@](C(=O)N2CCc3ncc(C(F)(F)F)cc3C2)(C(C)C)C1: inactive
CCCCC(CC)COP(=O)(OCC(CC)CCCC)OCC(CC)CCCC (stereo unspecified): inactive
CCc1cc(C2=C(C(=O)O)N(c3ccccc3C(F)(F)F)S(=O)(=O)c3ccccc32)cc2c1OCO2: 7.18 µM (active)
COC(=O)[C@H]1[C@H]2C[C@@H]3c4[nH]c5cc(OC)ccc5c4CCN3C[C@H]2C[C@@H](OC(=O)c2cc(OC)c(OC)c(OC)c2)[C@@H]1OC: 8.87 µM (active)
CN(C)C(=O)NC1(c2ccccc2)CCN(CC[C@@]2(c3ccc(F)c(F)c3)CN(C(=O)c3ccccc3)CCO2)CC1: inactive

Q: What AC50 value was documented for this molecule, CS(=O)(=O)c1ccc([C@@H](C[C@H]2CCC(=O)C2)C(=O)Nc2cnccn2)cc1Cl ?
A: inactive

Q: What AC50 value was documented for this molecule, N[C@@H](Cc1c[nH]c2ccccc12)C(=O)O ?
A: inactive

Q: What AC50 value was documented for this molecule, CCN(CC)CCOc1ccc(C(=C(Cl)c2ccccc2)c2ccccc2)cc1 ?
A: 30.6 µM (active)

Q: What AC50 value was documented for this molecule, O=C1O[C@H]([C@H](O)CO)C(O)=C1O ?
A: inactive

Q: What AC50 value was documented for this molecule, COc1ccc(C(=O)Nc2nc3ccccc3c(NCc3ccccc3)c2C#N)cc1 ?
A: 9.66 µM (active)

Q: What AC50 value was documented for this molecule, CC(=O)S[C@H](C(=O)N[C@H]1Cc2ccccc2[C@H]2CCC[C@@H](C(=O)O)N2C1=O)C(C)C ?
A: inactive

Q: What AC50 value was documented for this molecule, O=C(O)CN(CC(=O)O)CC(=O)O ?
A: inactive

* * *

test: BSK_SAg_PBMCCytotoxicity: PBMC Cytotoxicity Assessment in the BioMAP Diversity Plus: SAg Assay (AID 2283093); conditions: primary human HUVEC with PBMC;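 further: PBMC viability measured as Alamar Blue reduction fluorescence at 546/580 nm; fitted both ways against DMSO so a hit may be loss or gain of signal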
Calls of active or inactive are those of the source. Rule for the calls: active = hit-call score of the fitted dose curve at least 0.9, where 1 is the maximum; inactive = score below 0.9.
Allowed answers: T for active, F for inactive

Q: Which result was noted for this molecule in the test: CC(C)c1cccc(C(C)C)c1NC(=O)NS(=O)(=O)c1cc(C(C)(C)O)co1
A: F

Q: Which result was noted for this molecule in the test: CC(C)(O)c1ccc(CNC(=O)c2cccnc2Oc2ccc(F)cc2)cc1
A: F

Q: Which result was noted for this molecule in the test: O=C(Oc1ccccc1)c1cccc(C(=O)Oc2ccccc2)c1
A: F

Q: Which result was noted for this molecule in the test: CCCCCCCCCCCCCCOS(=O)(=O)O
A: T

* * *

read-out: ABC Transporter (ABCC3), ABCC3 (gene 8714); assay: LTEA_HepaRG_ABCC3: Life Technologies and Expression Analysis (LTEA) Assay for ABC Transporter (ABCC3) using HepaRG (AID 2283462); settings: mRNA level, 48 h; actives raise or lower the signal
The source made the active and inactive calls. How the source made its calls: active means hit-call score of the fitted dose curve at least 0.9, where 1 is the maximum; inactive means score below 0.9.
Allowed answers: active, inactive

Q: Which result was noted for this compound in the test: CCCCOC(=O)CCCCC(=O)OCCCC
A: inactive

Q: Which result was noted for this compound in the test: CCCC(=O)O
A: inactive

Q: Which result was noted for this compound in the test: CCCCCCC(CCCCCCCCCCC(=O)OCC(COC(C)=O)OC(C)=O)OC(C)=O (configuration not stated)
A: inactive

Q: Which result was noted for this compound in the test: CC(C)OC(=O)C(C)(C)Oc1ccc(C(=O)c2ccc(Cl)cc2)cc1
A: inactive

Q: Which result was noted for this compound in the test: O=Cc1ccccc1C=O
A: inactive

Q: Which result was noted for this compound in the test: CC(C)c1cccc(C(C)C)c1NC(=O)NS(=O)(=O)c1cc(C(C)(C)O)co1
A: inactive

Q: Which result was noted for this compound in the test: CCN(CC)CCOc1ccc(C(=C(Cl)c2ccccc2)c2ccccc2)cc1
A: inactive

Q: Which result was noted for this compound in the test: Cc1ccc(C(C)(C)C)c(O)c1
A: inactive

Q: Which result was noted for this compound in the test: O=C(O)c1[nH]n(-c2ccc(S(=O)(=O)O)cc2)c(=O)c1N=Nc1ccc(S(=O)(=O)O)cc1
A: inactive

Q: Which result was noted for this compound in the test: NC1CCCCC1
A: inactive

Q: Which result was noted for this compound in the test: C=CCc1ccc(OC)c(OC)c1
A: inactive

Q: Which result was noted for this compound in the test: C=CCCCCCCCCCCCC
A: inactive

Q: Which result was noted for this compound in the test: CN(C)C(=O)NC1(c2ccccc2)CCN(CCC[C@]2(c3ccc(Cl)c(Cl)c3)CCCN(C(=O)c3ccccc3)C2)CC1
A: inactive

Q: Which result was noted for this compound in the test: O=C1NC(=O)C(c2ccccc2)(c2ccccc2)N1
A: inactive

Q: Which result was noted for this compound in the test: Oc1ccccc1O
A: inactive

Q: Which result was noted for this compound in the test: O=C1c2c(O)cccc2Cc2cccc(O)c21
A: inactive

Q: Which result was noted for this compound in the test: S=c1[nH]c2ccccc2s1
A: inactive

Q: Which result was noted for this compound in the test: Cn1cnc2c1c(=O)[nH]c(=O)n2C
A: inactive

Q: Which result was noted for this compound in the test: OCC(O)CO
A: inactive

Q: Which result was noted for this compound in the test: COC(=O)CCCC(=O)OC
A: active

Q: Which result was noted for this compound in the test: Cc1cc(SC2=C(O)C[C@@](CCc3ccc(N)cc3)(C(C)C)OC2=O)c(C(C)(C)C)cc1CO
A: inactive

Q: Which result was noted for this compound in the test: O=C(O)c1cccnc1
A: inactive
